TARGET OF ASSAY: furin, P09958;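 further: purified furin at 1:10 enzyme:substrate in 50 mM HEPES pH 7.5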
Sequence (P09958 whole entry): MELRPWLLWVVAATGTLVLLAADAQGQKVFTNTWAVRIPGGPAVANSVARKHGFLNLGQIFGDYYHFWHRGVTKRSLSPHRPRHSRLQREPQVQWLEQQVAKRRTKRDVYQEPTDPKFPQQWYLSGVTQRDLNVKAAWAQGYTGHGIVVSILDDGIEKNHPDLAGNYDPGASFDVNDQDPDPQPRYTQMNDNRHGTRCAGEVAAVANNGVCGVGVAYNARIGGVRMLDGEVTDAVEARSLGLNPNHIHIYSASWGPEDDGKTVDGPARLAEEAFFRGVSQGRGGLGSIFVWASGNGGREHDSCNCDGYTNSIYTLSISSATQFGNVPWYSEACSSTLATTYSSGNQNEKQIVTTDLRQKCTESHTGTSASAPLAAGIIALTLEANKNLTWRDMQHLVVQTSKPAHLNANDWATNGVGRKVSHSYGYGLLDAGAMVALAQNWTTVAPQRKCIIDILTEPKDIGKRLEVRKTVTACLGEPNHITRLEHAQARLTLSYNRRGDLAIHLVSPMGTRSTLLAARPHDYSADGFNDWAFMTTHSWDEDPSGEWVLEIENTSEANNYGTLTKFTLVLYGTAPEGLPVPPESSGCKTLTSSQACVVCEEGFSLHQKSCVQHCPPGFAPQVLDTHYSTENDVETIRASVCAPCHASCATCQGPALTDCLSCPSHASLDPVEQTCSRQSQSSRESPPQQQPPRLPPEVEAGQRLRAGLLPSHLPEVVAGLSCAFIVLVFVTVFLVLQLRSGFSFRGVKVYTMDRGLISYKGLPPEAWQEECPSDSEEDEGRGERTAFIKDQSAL
MEASUREMENT DESCRIPTION: furin cleavage Z-score vs untreated control; higher = more cleavage, active = 3.5 or more, inactive = 1 or less, 8 variable residues between constant flanks
ASSAY SETUP: 7.5 min
The list shows a part of the results. The hit rate among all sequences tested is not known here.
ASSAY READOUT: furin cleavage Z-score
I'd appreciate a reply containing only the number, no unit.

CARRSRNVSTAGNASASA [FS-2083]: 1.86
CAFSSRWGRGAGNASASA [FS-1523]: -2.35
CARRSRSSSRAGNASASA [FS-2600]: 0.0891

Now let's try a different one.
Retrieve furin cleavage Z-score measured for CAWEMEECSQAGNASASA [HC1788] and print it.
1.14
